System: K4 kissing-loop RNA reporter;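 further: bound reporter read as fluorescence of individual clusters on recovered sequencing chips by microscopy, with normalized cluster intensities fitted with a binding model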
testSummary: apparent KD of K4 kissing-loop reporter; higher = weaker reporter binding
recordedConditions: Eterna round: R107; input ligand: FMN 200 uM
Each entry gets FALSE if its apparent KD of K4 kissing-loop reporter stays under 400 nM, and TRUE if its apparent KD of K4 kissing-loop reporter is 400 nM or above.

Here are 5 sequences together with their reported answers.
UCGUCCGGAUUACUCGUGGUCAUGGUCGAUACCAGUAGAUUAAUCUACCCUUGGCAGCGACAUGAGUGAUGUUCAUGUGCAAUGA [KL-XTheo-A6 #analogue]; FALSE
ACAGGAUCGAAAGAUCCUGAGCAGUCAAAACGAGGACCGGUACGGCCGCCACUCGAAUAAGAGAGUGAUGUUCUCGACUGCAAAA [Omei inspired 10 - Reversed #K4Late]; TRUE
UCAUGAGAGACGGCCGCCACUGAAGCAGCUCUGUAAGAGCUGCAACAGUAGAGUGAUGUUCUGCGCAGGACCGGGUCGUCAUGAA [KL-SSTryp-B9]; TRUE
GGCCCGGGCGCGGCCGCCACUCCCUCGUACCGAAAGGUAUGAUACCGAGUGAUGUUCGGUUGGAGGAGGACCGGGCGCCCGGGCC [#2 Exclusion - Tryptophan B Attempt #4 (HarryS)]; FALSE
AGUGGACGUGUCCGGAGUGAUGUUCAGGAUACCAGACACGAAAGUGUCCCUUGGCAGCCGGAGUGAUGUUCCGGCGUUCACUAAA [Omei KL Theo A Exc B v4]; TRUE

Prompt line: Decide: apparent KD of K4 kissing-loop reporter of GCCUAGUGAUGUUGGGUAAUUUAAACCGGGCGAGGACCGGUACGGCCGCCACUCGGAAACACAACAAAAUUUAAUUUAAUUUAAA [Exclusion - Trytophan A] >= 400 nM?
Response line: FALSE

###

System: MS2 coat protein
testSummary: apparent KD of MS2 coat protein; designed switch direction (-1 OFF switch, 1 ON switch): -1; higher = weaker reporter binding
recordedConditions: input ligand: none
parameter: apparent KD of MS2 coat protein (nM)
One number for each entry, in nM.

Give apparent KD of MS2 coat protein for all sequences that follow.
1. AAGUUACAUGAGGAUCACCCAUGUGAGGAUAUGAGUCAGUCACGGUGACGUGGCUGACUCAGAAGGCACAAAGG [JL-ex1-4.37 salish99 mod] (Eterna round: R97, puzzle: Exclusion 1)
2. UUUUUAAAUGAAGGAUAUACUUAACAUGAGGAUCACCCAUGUGGUGUUGUGAGUGAGUGAGUUUAGUAGAAGGUCAAUUAUUUU [JMF's solution 20] (Eterna round: R96, puzzle: Exclusion NG 2)
3. UCAAGUAUGUAGGAUAUCGAUGUCUACGGACAUCGAGAAGGACGUACAUGAGGAUCACCCAUGUAACUUGCAUG [Exclusion 6 - B - 10:d] (Eterna round: R96, puzzle: Exclusion 6)

Response line:
1: 98.1; 2: 288; 3: 283

###

System: MS2 coat protein
testSummary: apparent KD of MS2 coat protein; higher = weaker reporter binding
recordedConditions: Eterna round: R107; input ligand: tryptophan 2.4 mM
parameter: apparent KD of MS2 coat protein (nM)
Numbers only, in nM.

Below are worked cases with known answers.
UCGCCCGGGUCGGCCGCCACUGAGGUGAUGUGACAUGAGGAUCACCCAUGUUGUCAUGUGGCACAUAGGACCGGGACCCGGGCGA [Exclusion - Tryptophan B Attempt #3 (HarryS)]; 22.5
AAUUGGGUUGGUGAGGUGGUUGGAGGCGAUACCAGCGUGGAAACACGCCCUUGGCAGCGCCAGGACAUGAGGAUCACCCAUGUUC [Ostrava]; 22.1
GACCUUAUCUGAAGGAGCGAGGUAAAUAGGGAUAGGAACAUGAGGAUCACCCAUGUGCGGCCUCAGGUAGGUCGCAGAUGAGAUU [Exclusion Arginine B GF28]; 113
UGGCGAGAAGGAAGGAGCGUCAGCUGAGUUACAUGAGGAUCACCCAUGUUUUACAUUGUGUGACAGGUAGGUCGCCUUCUGCCCU [SS-ArgB20]; 13.5
AGUGUUGUCUGAAGGAGCGGCCCUUGAUCCUCAUGAGACAUGAGGAUCACCCAUGUCUCGGGCCAGGUAGGUCGCAGGCAUCACA [Omei Arg B SS v1]; 23.7

Dear colleague, could you send me apparent KD of MS2 coat protein for each of the items below? Thanks.
1. AAUAAUAACAUGGGUGCACGAGUGGCAUAACGAGGACCGGUACGGCCGCCACUCGAACAUGAGGAUCACCCAUGUAGCCACUCGA [M'-T'-T-MS2-T'' - Design 4]
2. ACGGAGAUUGCUAAAUGUUGGCGAGCGGAUACCAGCCUAUUAUUGGGCCCUUGGCAGCCGACAUGAGGAUCACCCAUGUAAACAA [Berere]
3. AUUUACAUGGUCAUAUAUAUAUCGUCAGAUACCAGACGAGAUAUUGUCCCUUGGCAGCUGUUACAUGAGGAUCACCCAUGUAAUU [JR_Nu_ExcTheophyA_Sub021]
4. GGUUACUCUACGGCCGCCACUGGGCAUGUAAAUAACAUGAGGAUCACCCAUGUGGAUUAAAAUUACAGGACCGGGUAGUGUAACC [Tryptophan B 21]
5. GCUAGGUCUACGGCCGCCACUAGACGUGGGUAAAACAUGAGGAUCACCCAUGUGCUACGGGCGAAUAGGACCGGGUAGACCUAGC [SSTB NP+V+V2 #15 +-Same Structure]

Response line:
1. 20.5
2. 76.7
3. 64.7
4. 36.1
5. 85.4

List reported apparent KD of MS2 coat protein for each of these sequences:
1. AUUAUAGUUUAUAACGAAGUUGAUACAGAAGGAGCGUGAAUAAUCACAGGUAGGUCGCUGAUAAUACAUGAGGAUCACCCAUGUU [JR_Nu_SSArginiA_Sub018]
2. AAACGACAUGAGGAUCACCCAUGUGCCGAUACCAGCCGGAUAUACGGCCCUUGGCAGCGGAGUAAAUCCGGAGGACAAUGGGUAA [Same State Theophylline A GF6]

Response line:
19.4
39.5

Attribution: the supplement of paper PMC9170038
